# experiment: Plasmodium falciparum growth inhibition, primary screen, strain 3D7, DAPI fluorescence, 100 nL (AID 1184);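 further: parasites grown inside human red blood cells in medium with human serum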
# testContext: P. falciparum 3D7 growth, 3 d, higher = more signal
Short version: z-score at least -2 is Y, less is N.

The examples below pair each entry with its known result.
[
  {
    "compound": "CCOC(=O)C[C@H]1[C@H](OC(=O)c2ccc(-c3ccccc3)cc2)[C@@H](NC(=O)CC(C)C)c2cc(OCCCO)ccc2N1C(=O)c1ccccc1",
    "assignedClass": "Y"
  },
  {
    "compound": "CN1C=C(C(=O)OCCS(C)(=O)=O)C(C(=O)OCCS(C)(=O)=O)=CC(c2ccc(CO)cc2)=CC1c1cccs1 (stereo unspecified)",
    "assignedClass": "N"
  },
  {
    "compound": "Cc1cccc([C@H]2C[C@H]3C(I)=C[C@@H]2C(=O)[C@]32CO2)c1",
    "assignedClass": "Y"
  },
  {
    "compound": "C=CC1c2cc(O)c(OC)cc2CCN1Cc1ccc([N+](=O)[O-])o1 (stereo unspecified)",
    "assignedClass": "Y"
  }
]

Next, consider the following compound.
Q. Decide: is the reported value of z-score for C=C(COC)C(=O)CC[C@H](OC(=O)c1cccnc1)c1ccc(CO)o1 equal to or greater than -2?
A. Y

----------
Recorded composite z-score values for a group of compounds are listed next.
# assayedTarget: Focal adhesion kinase 1 (Homo sapiens)
# experiment: small-molecule microarray binders of FAK, primary screen, biochemical, 635/667 nm fluorescence, BSA, DTT (AID 1130);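 further: composite of spot emission at 667 nm and signal to noise over triplicate slides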
# testContext: PTK2 binding, 635 nm fluorescence, higher = more signal

For orientation, consider the following solved cases.
[
  {
    "compound": "NCCCCCNC(=O)[C@H]1C[C@H]2C(=O)N[C@@H](Cc3ccccc3)C(=O)N2[C@H]1c1ccc(O)cc1",
    "composite z-score": -0.506
  },
  {
    "compound": "CC(C)C[C@@H]1NC(=O)[C@@]23C(=O)N[C@@H](Cc4ccccc4)C2[C@H](C)[C@@]2(C)O[C@H]2C3/C=C/C/C=C\\CNC(=O)[C@@H](C)NC1=O (stereo partly specified)",
    "composite z-score": -0.647
  },
  {
    "compound": "C=C(CCCC)C(=O)CC[C@@H](OC(=O)c1cccnc1)c1ccc(OCCO)cc1",
    "composite z-score": -0.471
  },
  {
    "compound": "C=CCN1C(=O)[C@@]2(O[C@@H](CCO)[C@H]([Si](C)(C)c3ccc(OC)cc3)[C@H]2C)c2cc(N3CCOC3=O)ccc21",
    "composite z-score": 0.246
  },
  {
    "compound": "COCCOC(=O)N1C(=O)[C@@]2(c3cc(C#CCC(C(=O)OC)C(=O)OC)ccc31)[C@H](c1ccc(O)cc1)N1[C@H](c3ccccc3)[C@H](c3ccccc3)OC(=O)[C@H]1[C@@H]2C(=O)NC[C@H](O)c1ccccc1",
    "composite z-score": 0.933
  }
]

Okay, now this compound:
Q. Request the reported composite z-score associated with COCCOC(=O)N1C(=O)[C@@]2(c3cc(C#CCNC(N)=O)ccc31)[C@H](c1ccc(O)cc1)N1[C@H](c3ccccc3)[C@H](c3ccccc3)OC(=O)[C@H]1[C@@H]2C(N)=O
A. -0.529

----------
The entries below are paired with their reported z-score.
# experiment: basal RPMI8226 viability, no added stimulus, profiling panel, cell-based, calcein-AM fluorescence, 48 h, PK04 Diversity Set (AID 1166);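 further: cells grown under basal conditions without added stimulus; test concentration not given here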
# testContext: RPMI8226 myeloma viability, higher = more signal
The answer should be a number; do not append a unit.

[
  {
    "compound": "CCOC(=O)C[C@H]1[C@H](OC(=O)c2ccccc2-c2ccccc2)[C@@H](NC(=O)c2ccccc2)c2cc(OCCCO)ccc2N1C(=O)c1ccccc1",
    "z-score": -0.559
  },
  {
    "compound": "[N-]=[N+]=NCc1ccccc1C[C@@]1(C(=O)N2CCCCC2)N=C(c2ccc(OCCCO)cc2)O[C@@H]1c1ccccc1CN=[N+]=[N-]",
    "z-score": -3.57
  },
  {
    "compound": "COCC(=C=CC[C@@H](O)c1ccc(OCCO)cc1)CCO",
    "z-score": 0.786
  },
  {
    "compound": "Cc1ccccc1C(O)C1C=CC2C(=O)NC(=O)C2N1Nc1ccc(Cl)cc1Cl (stereo not given)",
    "z-score": -1.58
  },
  {
    "compound": "COC(=O)C(CC#Cc1ccc2c(c1)[C@]1(C(=O)N2)[C@H](C(=O)Nc2nc3ccccc3s2)[C@H]2C(=O)O[C@H](c3ccccc3)[C@H](c3ccccc3)N2[C@@H]1c1ccc(OCCO)cc1)C(=O)OC",
    "z-score": -1.97
  },
  {
    "compound": "COc1ccc(C(O)C2C=CC3C(=O)N(c4ccccc4)C(=O)C3N2Nc2ccccc2)cc1 (stereo not given)",
    "z-score": 0.0459
  },
  {
    "compound": "C=C(C(=O)CC[C@H](OC(=O)c1ccccc1-c1ccccc1C(=O)O)c1ccccc1OCCO)C(C)C",
    "z-score": -2.35
  },
  {
    "compound": "NC(=O)N1C(=O)C2C(C1=O)C1C=C(CCCO)C2C(C2CC2)N1Cc1cccc(OC(F)(F)F)c1 (stereo not given)",
    "z-score": 0.0097
  },
  {
    "compound": "COC(=O)C(CC#Cc1ccc2c(c1)[C@]1(C(=O)N2)[C@H](c2ccc(OCCO)cc2)N2[C@H](c3ccccc3)[C@H](c3ccccc3)OC(=O)[C@H]2[C@@H]1C(=O)N1CCN(c2ncccn2)CC1)C(=O)OC",
    "z-score": -3.72
  },
  {
    "compound": "COCCCNC(=O)[C@@]1(c2ccc([N+](=O)[O-])cc2)CC(=O)N(C(C)C)[C@@H]1c1ccc(CO)cc1",
    "z-score": 0.243
  }
]

Q. Which measured z-score value corresponds to CCCCCN1CC=CC23O[C@@H]4C=CCOC(=O)[C@@H]4[C@H]2C(=O)N(CCO)[C@@H]3C1=O (stereo not given in full) ?
A. -0.285

Q. z-score for NC(=O)NCC#Cc1ccc2c(c1)[C@]1(C(=O)N2)[C@H](C(=O)N2CCN(c3ncccn3)CC2)[C@H]2C(=O)O[C@H](c3ccccc3)[C@H](c3ccccc3)N2[C@@H]1c1ccc(OCCO)cc1 ?
A. 0.86

Q. What measured z-score goes with COC(=O)[C@@]1(Cc2ccc(OC)cc2)[C@H]2c3cc(C(=O)N4CCCC4)n(Cc4ccc(OC(F)(F)F)cc4)c3C[C@H]2CN1C(=O)c1ccccc1 ?
A. -2.45

Q. Dear colleague, I am looking for the recorded z-score of the following compound: Cc1ccc(S[C@]2(C(=O)NCc3ccccc3)CC(=O)N(Cc3cc(C(F)(F)F)cc(C(F)(F)F)c3)[C@@H]2c2ccc(CO)cc2I)cc1
A. -2.22

Q. Could you share which z-score value was measured for COc1cccc(/C=C(\C#N)C(=O)Nc2c(C)n(C)n(-c3ccccc3)c2=O)c1 ?
A. 0.101

----------
# experiment: modulators of S6 phosphorylation in cells, primary screen, cell-based, A549, cytoblot, luminescence, serum-stimulated (AID 1158);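 further: serum-stimulated A549 lung adenocarcinoma cells; signal is phosphorylated S6 detected by cytoblot immunostaining with HRP secondary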
# testContext: A549 phospho-S6 cytoblot, 5 h, higher = more signal
assayMetric: z-score

Known results for compounds:
[
  {
    "compound": "CCc1cccc(NC(=O)O[C@H]2[C@H](OC(=O)Nc3ccccc3)[C@H](OC(=O)Nc3ccccc3)[C@@H](OC)O[C@@H]2CO)c1",
    "z-score": 0.213
  },
  {
    "compound": "CC(=O)N1CC(C(O)C2C=CC3C(=O)NC(=O)C3N2Nc2ccc(Cl)cc2Cl)c2ccccc21 (configuration not stated)",
    "z-score": -0.746
  },
  {
    "compound": "C=CCC(OC(C)=O)[C@@H]1[C@@H](N(Cc2ccc(-c3ccccc3)cc2)C(=O)Cc2ccc(F)cc2)c2cc(OCCCO)ccc2N1C(=O)Cc1ccc2ccccc2c1 (some centres not stated)",
    "z-score": -0.199
  }
]

Q. What does the record list as z-score for Cc1ccc(C(C)CC(O)C2C=CC3C(=O)N(c4ccccc4)C(=O)C3N2Nc2ccc(C#N)cc2)o1 (configuration not stated) ?
A. 0.729

Q. What does the data say about its z-score? Entry: C=CCC(OC(C)=O)[C@@H]1[C@@H](N(Cc2ccc(-c3cccc(C(F)(F)F)c3)o2)C(=O)c2ccc(C)cc2)c2cc(OCCCO)ccc2N1C(=O)Cc1ccc(OC)cc1 (some centres not stated)
A. 0.194

Q. What value of z-score has been recorded for this entry: COCCOC(=O)N1C(=O)[C@@]2(c3cc(C#CCC(C(=O)OC)C(=O)OC)ccc31)[C@H](c1ccc(OCCO)cc1)N1[C@H](c3ccccc3)[C@H](c3ccccc3)OC(=O)[C@H]1[C@@H]2C(=O)Nc1nc2ccccc2s1
A. 0.0091

Q. Data request, read-out z-score, for COCC(=C=CC[C@@H](O)c1ccc(OCCO)cc1)CCO
A. 0.357

Attribution: PubChem BioAssay
